The measurements presented in this section are drawn from PubChem BioAssay (NCI).

Would you kindly list TGI for each of these molecules?
test system: UO-31 renal; assay: NCI tumour cell line growth inhibition, 48 h
Give bare numbers, in µM.

Indicate the recorded TGI value for this molecule: CCOC(=O)C(=Cc1c(-c2ccccc2)[nH]c2ccccc12)C(=O)OCC 17.1

Indicate the recorded TGI value for this molecule: COc1ccccc1-c1nccc(COc2ccccc2C[C@@H](Oc2ncnc3sc(-c4ccc(F)cc4)c(-c4ccc(OCCN5CCN(C)CC5)c(Cl)c4C)c23)C(=O)O)n1 17.5

Indicate the recorded TGI value for this molecule: O=C1CCC(CCc2nc3ccccc3[nH]2)(c2ccccc2)C(=O)N1 (stereo unspecified) 52.1

Indicate the recorded TGI value for this molecule: O=C1c2cc3c(cc2-c2c1c1cc(F)c(F)cc1c(=O)n2C[C@H](O)CO)OCO3 0.337

Continue with the next molecule.
Indicate the recorded TGI value for this molecule: CCOC(=O)c1cc(C(=O)O)c(=O)n2c1[nH]c1ccccc12 87.7

* * *

tested on: RXF 393 renal; experiment: NCI tumour cell line growth inhibition, 48 h
Would you kindly list TGI for each of these molecules?
Numbers only, in µM.

Some solved entries appear below for comparison.
Indicate the recorded TGI value for this molecule: CC(Br)CN(CC(C)Br)c1ccc2c(c1)Cc1ccccc1-2 (centres undefined) 28

Indicate the recorded TGI value for this molecule: O=C1c2cccnc2C(=O)c2c1nc1ccccc1c2-c1ccc2c3c(nc4ccccc42)C(=O)c2cccnc2-c13 9.68

Indicate the recorded TGI value for this molecule: CC(C)(C)C#CI1OC(=O)c2ccccc21 30.4

***
Indicate the recorded TGI value for this molecule: COc1cc2c3cc1Oc1cc(ccc1O)C[C@@H]1c4c(cc(OC)c(O)c4Oc4ccc(cc4)C[C@@H]3[N+](C)(C)CC2)CC[N+]1(C)C 47

* * *

tested on: SN12C renal; assay: NCI tumour cell line growth inhibition, 48 h
Would you kindly list TGI for each of these compounds?

Write down the reported TGI (system: SN12C renal) of N=C(N)SCC(=O)O > 100 µM

Would you mind giving TGI for every compound in the list below?
1. Cc1cc(C)c2nccc(NCCCN(C)C)c2c1[N+](=O)[O-]
2. CCOc1ccccc1NC(=O)CCC(=O)NN
3. COc1ccc(CNC(=O)c2ccc(-c3cc(-c4nnc(C)o4)ccc3C)cc2)cc1
4. CC(C)(C)[Si](C)(C)OC1CCOC1(O)c1ccccn1 (stereo not drawn)
5. CC1=[N+]([O-])C2(CCCC2)N(O)C1(C)C

1: > 100 µM; 2: > 100 µM; 3: > 25 µM; 4: > 100 µM; 5: > 100 µM

Would you mind giving TGI for every compound in the list below?
1. COc1ccc(C(=C2C(=O)OC(=O)C2=C(C)C)c2ccc(OC)cc2)cc1
2. Nc1cc2nc(-c3ccccc3)cn2cn1
3. COc1cc(/C=C2\C(=O)Nc3ccc(Br)cc32)cc(OC)c1OC
4. C/C(=N\O)[C@H]1CC[C@@]2(C)[C@@H]3CC[C@H]4C(C)(C)/C(=N/O)CC[C@@]45CC35CC[C@]12C (stereo partly drawn)

["> 100 µM", "> 100 µM", "> 100 µM", "> 16.7 µM"]

Would you mind giving TGI for every compound in the list below?
1. CC12CCC(=O)[C@@]1(C)CCCC2=O (stereo partly drawn)
2. C#CCn1cc(C=C2C(=O)NC(=S)NC2=O)c2cc(Cl)ccc21
3. C/C(N=NC(=S)N1CCCCCC1)=C1\C=CC=CN1O

1: > 100 µM; 2: 4.49 µM; 3: > 100 µM
